# Tested on: L 5178 Y cells
# ASSAY METHOD TEXT: growth-inhibitory activity on mouse lymphoma L 5178 Y cells (MIC)
# Type: cell-based
# PROTOCOL CONDITIONS: 5×10^4 /ml, Fischer's medium with 10% bovine serum, 37° C., 22 hours, phenol red color change, read-out: MIC (minimum inhibitory concentration on cell growth)
MEASURE: MIC (µg/mL)

Solved entries (count: 2):
| MOLECULE | MIC (µg/mL) |
| --- | --- |
| Nc1ncnc2c1ncn2[C@@H]1C=C(CO)[C@@H](O)C1 [R1=H, R4=H, R5=H, R6=H, 2'-deoxy neplanocin A] | 4 |
| O=C(Nc1ncnc2c1ncn2[C@@H]1C=C(COC(=O)c2ccccc2)[C@@H](O)[C@H]1O)c1ccccc1 [N^6,5'-Odibenzoyl neplanocin A, N^6,5'-O-dibenzoyl neplanocin A] | 0.16 |

P = Nc1ncnc2c1ncn2[C@@H]1C=C(CO)[C@@H](O)[C@@H]1Br [R1=H, R4=Br, R5=H, R6=H, 2'-(R)-bromo-2'-deoxy neplanocin A]
Q = O=C(OCC1=C[C@@H](n2cnc3c(N(C(=O)c4ccccc4)C(=O)c4ccccc4)ncnc32)[C@H](O)[C@@H]1O)c1ccccc1 [N^6,N^6,5'-Otribenzoyl neplanocin A, N^6,N^6 5'-O-tribenzoyl neplanocin A]
R = O=C(Nc1ncnc2c1ncn2[C@@H]1C=C(CO)[C@@H](O)[C@@H]1I)c1ccccc1 [R1=COPh, R4=I, R5=H, R6=H]
S = CC(=O)OCC1=C[C@@H](n2cnc3c(N)ncnc32)[C@H](OC(C)=O)[C@@H]1OC(C)=O [2',3',5'-Otriacetyl nephlanocin A, 2',3',5'-O-triacetyl neplanocin A]
I would appreciate it if you could sort these 4 molecules by MIC, starting from the smallest number. // list labels; follow requested order
Q, S, P, R
(Q: 0.16 µg/mL, S: 0.8 µg/mL, P: 4 µg/mL, R: 100 µg/mL)

###

# System: L 5178 Y cells
# ASSAY METHOD TEXT: growth-inhibitory activity on mouse lymphoma L 5178 Y cells (MIC)
# Format: cell-based
# PROTOCOL CONDITIONS: 5×10^4 /ml, Fischer's medium with 10% bovine serum, 37° C., 22 hours, phenol red color change, read-out: MIC (minimum inhibitory concentration on cell growth)
MEASURE: MIC (µg/mL)

Solved entries (count: 4):
| COMPOUND | MIC (µg/mL) |
| --- | --- |
| Nc1ncnc2c1ncn2[C@@H]1C=C(CO)[C@@H](O)[C@@H]1I [R1=H, R4=I, R5=H, R6=H, 2'-(R)-iodo-2'-deoxy neplanocin A] | 4 |
| Nc1ncnc2c1ncn2[C@@H]1C=C(CO)[C@H]2OC(c3ccccc3)O[C@H]21 (stereo partly drawn) | 4 |
| Nc1ncnc2c1ncn2[C@@H]1C=C(CO)[C@@H](O)[C@@H]1Cl [R1=H, R4=Cl, R5=H, R6=H, 2'-(R)-chloro-2'-deoxy neplanocin A] | 20 |
| [N-]=[N+]=N[C@H]1[C@H](O)C(CO)=C[C@H]1n1cnc2c(N)ncnc21 [R1=H, R4=N3, R5=H, R6=H, 2'-(R)-azide-2'-deoxyneplanocin A] | 100 |

a = CC(=O)OCC1=C[C@@H](n2cnc3c(N)ncnc32)[C@@H](Cl)[C@@H]1OC(C)=O
b = Nc1ncnc2c1ncn2[C@@H]1C=C(CO)[C@@H](O)[C@@H]1N
Looking at recorded values for MIC, does a or b come in lower? Please respond with the label that marks your chosen entry.
b
(b: 4 µg/mL, a: 100 µg/mL)
